Source of measurements: patent US20190241654A1

# Target entity: T1, recombinant extracellular domain of CD47 (UniProt Q08722 19-139, limits assumed)
# T1 construct: extracellular domain; Analyte flowed over the captured antibodies in SPR; also called CD47-ECD
# T1 sequence (Q08722 19-139 limits assumed): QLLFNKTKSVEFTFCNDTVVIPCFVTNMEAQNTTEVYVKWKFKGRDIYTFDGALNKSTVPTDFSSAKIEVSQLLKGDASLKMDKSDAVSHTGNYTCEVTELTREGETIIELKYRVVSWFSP
# Method description: SPR; antibody captured on anti-human Fc, CD47-ECD flowed 0-100 nM; 1:1 Langmuir
# Experimental: The binding kinetics of anti-CD47 antibodies to the recombinant extracellular domain of CD47 were determined by using surface Plasmon resonance (SPR, MASS-1, Sierra Sensors; T200, Biacore, GE Healthcare Life Sciences). Anti-human Fc (P/N: BR-1008-39 (GE Healthcare Life Sciences)) was immobilized on a High Capacity Amine chip (P/N: SPR-AS-HCA, Sierra sensors) or CM5-S Chip (GE Healthcare Life Sciences). […]
Reported endpoint: kon (M⁻¹ s⁻¹)

[
  {
    "Binder": "AbParental (parental anti-CD47 antibody) (antibody, human IgG4 S228P, kappa, V domains shown, also called Parental LC-HC; parental antibody) VH: QMQLVQSGAEVKKTGSSVKVSCKASGFNIKDYYLHWVRQAPGQALEWMGWIDPDQGDTEYAQKFQDRVTITRDRSMSTAYMELSSLRSEDTAMYYCNAAYGSSSYPMDYWGQGTTVTVSS VL: NIQMTQSPSAMSASVGDRVTITCKASQDIHRYLSWFQQKPGKVPKHLIYRANRLVSGVPSRFSGSGSGTEFTLTISSLQPEDFATYYCLQYDEFPYTFGGGTKVEIKR",
    "Recorded measurement": "7.94e+06"
  },
  {
    "Binder": "Ab1119/Ab480 (antibody, V domains shown, Variant of AbParental; also called LC Ab1119 / HC Ab480) VH: QMQLVQSGAEVKKPGSSVKVSCKASGFNIKDYYLHWVRQAPGKGLEWMGWIDPDQGDTEYAQKFQGRVTITRDRSTSTAYMELRSLRAEDTAVYYCNAAYGSSSYPMDYWGQGTLVTVSS VL: NIQMTQSPSSLSASVGDRVTITCRASQDIHRYLSWFQQKPGKVPKHLIYRANRLVSGVPSRFSGSGSGTEFTLTISSLQPEDFATYYCLQYDEFPYTFGGGTKVEIK",
    "Recorded measurement": "1.02e+07"
  }
]
